- testDescription: Pharmacokinetics according to renal function of patients
- Format: in vivo, human
- runParameters: both sexes, human, plasma, oral, 200 mg, normal renal function (control), 200 mg once daily, Day 7, plasma; read-out: AUC0-t (AUC0-48 h), geometric LS mean
propertyName: AUC(0-t) (ng·h/mL)
Write it as a number; the unit ng·h/mL goes unstated.

Consider the molecule CC(C)n1cc(C#N)c2cc(-n3cc(C(=O)O)cn3)ccc21 and give its recorded AUC(0-t).
29700

====

- testDescription: Pharmacokinetics according to renal function of patients
- Format: in vivo, human
- runParameters: both sexes, human, plasma, oral, 200 mg, mild impairment, 200 mg once daily, Day 7, plasma; read-out: AUCtau, geometric LS mean
propertyName: AUC (ng·h/mL)
Write the value in ng·h/mL as a bare number.

Note down AUC recorded for CC(C)n1cc(C#N)c2cc(-n3cc(C(=O)O)cn3)ccc21 [Example 1]
38100
